# System: NCI-H295R
# testSummary: AC50 viability; higher = less potent
# reportedConditions: 48 h
Task for the reader: assign each of the following compounds its reported AC50 viability.
Write it as a number; the unit µM goes unstated.

Prompt: // lookup AC50 viability for O=C(Nc1ncc(-c2cc(C(F)F)nn2-c2c(Cl)cccc2Cl)s1)C1CC1
Response: 0.661

Prompt: // lookup AC50 viability for N[S+](=O)([O-])OC[C@@H]1C[C@@H](n2ccc3c(N[C@H]4CCc5ccccc54)ncnc32)C[C@@H]1O
Response: 1.66

Prompt: // lookup AC50 viability for Cc1ccc(-c2nn(C(C)(C)CNC(=O)c3ccncc3)c3ncnc(N)c23)cc1
Response: 16.6

Prompt: // lookup AC50 viability for CCCCNc1ncc2c(-c3ccc(CN4CCN(C)CC4)cc3)cn([C@H]3CC[C@H](O)CC3)c2n1
Response: 10.5

Every entry's value here was drawn from the supplement of paper PMC10949913.
